Attribute: viability, T/C
- Test system: 935938-334-R-J1-PDC spheroids with HUVEC/MSC, viability
- experimentalDetails: Anticancer human tumor 935938-334-R-J1-PDC patient-derived small intestine adenocarcinoma cell line growth inhibition [PI3K]
- experimentalContext: second compound 1 µM; first compound 0.001 µM; hits give low values
Please give a number only; it is taken to be in %.

Below are worked cases with known answers.
[[record]]
compound = "CC(C)n1nc(-c2ccc3oc(N)nc3c2)c2c(N)ncnc21 + COc1c(OCCCN2CCOCC2)ccc2c3n(c(=NC(=O)c4cnc(N)nc4)nc12)CCN3"
experimentalsystem = "935938-334-R-J1-PDC spheroids with HUVEC/MSC, viability"
measuredproperty = "viability, T/C"
endpointunit = "%"
measvalue = 37.2

[[record]]
compound = "CC(=O)c1c(C)c2cnc(Nc3ccc(N4CCNCC4)cn3)nc2n(C2CCCC2)c1=O + Cc1nc(NC(=O)N2CCCC2C(N)=O)sc1-c1ccnc(C(C)(C)C(F)(F)F)c1"
experimentalsystem = "935938-334-R-J1-PDC spheroids with HUVEC/MSC, viability"
measuredproperty = "viability, T/C"
endpointunit = "%"
measvalue = 49.8


Record request: viability, T/C value, item CC(C)n1nc(-c2ccc3oc(N)nc3c2)c2c(N)ncnc21 + CC(Nc1ncnc2nc[nH]c12)c1cc2cccc(Cl)c2c(=O)n1-c1ccccc1 91.7

Query Cn1ncnc1[C@H]1c2n[nH]c(=O)c3cc(F)cc(c23)N[C@@H]1c1ccc(F)cc1 + COc1c(OCCCN2CCOCC2)ccc2c3n(c(=NC(=O)c4cnc(N)nc4)nc12)CCN3 next 40.3

Same question for Cn1ncnc1[C@H]1c2n[nH]c(=O)c3cc(F)cc(c23)N[C@@H]1c1ccc(F)cc1 + Cc1nc(NC(=O)N2CCCC2C(N)=O)sc1-c1ccnc(C(C)(C)C(F)(F)F)c1 please. 70

Also CC(=O)c1c(C)c2cnc(Nc3ccc(N4CCNCC4)cn3)nc2n(C2CCCC2)c1=O + CC(Nc1ncnc2nc[nH]c12)c1cc2cccc(Cl)c2c(=O)n1-c1ccccc1 ? 109

---

Reported viability, T/C values are given for each entry in this list.
- Tested on: 935938-334-R-J1-PDC spheroids with HUVEC/MSC, viability
- experimentalDetails: Anticancer human tumor 935938-334-R-J1-PDC cell line growth inhibition [PI3K]
- experimentalContext: second compound 0.1 µM; first compound 0.00949 µM; hits give low values

[[record]]
molecule = "Cn1cnc2c(F)c(Nc3ccc(Br)cc3Cl)c(C(=O)NOCCO)cc21 + Cc1nc(NC(=O)N2CCCC2C(N)=O)sc1-c1ccnc(C(C)(C)C(F)(F)F)c1"
measvalue = "73.7%"

[[record]]
molecule = "Cn1cnc2c(F)c(Nc3ccc(Br)cc3Cl)c(C(=O)NOCCO)cc21 + COc1c(OCCCN2CCOCC2)ccc2c3n(c(=NC(=O)c4cnc(N)nc4)nc12)CCN3"
measvalue = "31.4%"

[[record]]
molecule = "Cn1cnc2c(F)c(Nc3ccc(Br)cc3Cl)c(C(=O)NOCCO)cc21 + CC(Nc1ccc2c(c1)OCCn1cc(N3C(=O)OCC3C(F)F)nc1-2)C(N)=O"
measvalue = "58%"


Please find the next molecule below.
Data request, read-out viability, T/C, for Cn1cnc2c(F)c(Nc3ccc(Br)cc3Cl)c(C(=O)NOCCO)cc21 + CC(Nc1ncnc2nc[nH]c12)c1cc2cccc(Cl)c2c(=O)n1-c1ccccc1 76%

---

- Tested on: 935938-334-R-J1-PDC spheroids with HUVEC/MSC, viability
- experimentalDetails: Anticancer human tumor 935938-334-R-J1-PDC cell line growth inhibition [PI3K];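 also: compound exposure lasted seven days before viability was read; percent of vehicle DMSO treated spheroid viability so 100% = untreated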
- experimentalContext: second compound 0.0316 µM; first compound 3 µM; hits give low values
viability, T/C values, listed per item

Bench note: what viability, T/C did Cn1cnc2c(F)c(Nc3ccc(Br)cc3Cl)c(C(=O)NOCCO)cc21 + CC(Nc1ccc2c(c1)OCCn1cc(N3C(=O)OCC3C(F)F)nc1-2)C(N)=O show? 15.8%

Same question for Cn1cnc2c(F)c(Nc3ccc(Br)cc3Cl)c(C(=O)NOCCO)cc21 + Cc1nc(NC(=O)N2CCCC2C(N)=O)sc1-c1ccnc(C(C)(C)C(F)(F)F)c1 please. 22.9%

Then this compound: Cn1cnc2c(F)c(Nc3ccc(Br)cc3Cl)c(C(=O)NOCCO)cc21 + COc1c(OCCCN2CCOCC2)ccc2c3n(c(=NC(=O)c4cnc(N)nc4)nc12)CCN3 20.3%

Queued: Cn1cnc2c(F)c(Nc3ccc(Br)cc3Cl)c(C(=O)NOCCO)cc21 + CC(Nc1ncnc2nc[nH]c12)c1cc2cccc(Cl)c2c(=O)n1-c1ccccc1 21.8%

---

- Tested on: 935938-334-R-J1-PDC spheroids with HUVEC/MSC, viability
- experimentalDetails: Anticancer human tumor 935938-334-R-J1-PDC cell line growth inhibition [PI3K];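 also: compound exposure lasted seven days before viability was read; percent of vehicle DMSO treated spheroid viability so 100% = untreated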
- experimentalContext: second compound 3.16 µM; first compound 0.0316 µM; hits give low values
The threshold is 70%. Values of viability, T/C beneath it are tagged satisfied; values meeting or exceeding it are tagged not satisfied.

[[record]]
compound = "Cn1ncnc1[C@H]1c2n[nH]c(=O)c3cc(F)cc(c23)N[C@@H]1c1ccc(F)cc1 + Cc1nc(NC(=O)N2CCCC2C(N)=O)sc1-c1ccnc(C(C)(C)C(F)(F)F)c1"
assignedcategory = "satisfied"


Answer whether the compound CC(C)n1nc(-c2ccc3oc(N)nc3c2)c2c(N)ncnc21 + Cc1nc(NC(=O)N2CCCC2C(N)=O)sc1-c1ccnc(C(C)(C)C(F)(F)F)c1 has viability, T/C strictly less than 70% satisfied

Field entry: CC(C)NCC(C(=O)N1CCN(c2ncnc3c2C(C)CC3O)CC1)c1ccc(Cl)cc1 (stereo unspecified) + Cc1nc(NC(=O)N2CCCC2C(N)=O)sc1-c1ccnc(C(C)(C)C(F)(F)F)c1 not satisfied

Can you check Cn1ncnc1[C@H]1c2n[nH]c(=O)c3cc(F)cc(c23)N[C@@H]1c1ccc(F)cc1 + CC(Nc1ncnc2nc[nH]c12)c1cc2cccc(Cl)c2c(=O)n1-c1ccccc1 next? not satisfied

Try the compound CCCS(=O)(=O)Nc1ccc(F)c(C(=O)c2c[nH]c3ncc(-c4ccc(Cl)cc4)cc23)c1F + CC(Nc1ncnc2nc[nH]c12)c1cc2cccc(Cl)c2c(=O)n1-c1ccccc1 not satisfied

Field entry: CCN1CCN(Cc2ccc(Nc3ncc(F)c(-c4cc(F)c5nc(C)n(C(C)C)c5c4)n3)nc2)CC1 + CC(Nc1ncnc2nc[nH]c12)c1cc2cccc(Cl)c2c(=O)n1-c1ccccc1 satisfied

---

- System: 935938-334-R-J1-PDC spheroids with HUVEC/MSC, viability
- experimentalDetails: Anticancer human tumor 935938-334-R-J1-PDC cell line growth inhibition [PI3K];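 also: compound exposure lasted seven days before viability was read; percent of vehicle DMSO treated spheroid viability so 100% = untreated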
- experimentalContext: second compound 0.01 µM; first compound 10 µM; hits give low values
measuredProperty: viability, T/C

[[record]]
compound = "Cn1ncc(Cl)c1-c1cc(C(=O)NC(CN)Cc2cccc(F)c2)sc1Cl (stereo unspecified) + CC(Nc1ccc2c(c1)OCCn1cc(N3C(=O)OCC3C(F)F)nc1-2)C(N)=O"
measuredproperty = "viability, T/C"
measvalue = "99.8%"

[[record]]
compound = "C=CC(=O)N1CCN(c2nc(=O)n(-c3c(C)ccnc3C(C)C)c3nc(-c4c(O)cccc4F)c(F)cc23)C(C)C1 (stereo unspecified) + CC(Nc1ccc2c(c1)OCCn1cc(N3C(=O)OCC3C(F)F)nc1-2)C(N)=O"
measuredproperty = "viability, T/C"
measvalue = "98.2%"

[[record]]
compound = "CC(Cn1ccc(-c2ccc(C#N)c(Cl)c2)n1)NC(=O)c1cc(C(C)O)[nH]n1 (stereo unspecified) + CC(Nc1ccc2c(c1)OCCn1cc(N3C(=O)OCC3C(F)F)nc1-2)C(N)=O"
measuredproperty = "viability, T/C"
measvalue = "56.6%"


# input compound: C#Cc1c(F)ccc2cc(O)cc(-c3ncc4c(N5CC6CCC(C5)N6)nc(OCC56CCCN5CC(F)C6)nc4c3F)c12 (stereo unspecified) + CC(Nc1ccc2c(c1)OCCn1cc(N3C(=O)OCC3C(F)F)nc1-2)C(N)=O ; wanted: its viability, T/C 31.1%

Another compound: C=CC(=O)N1CCN(c2nc(=O)n(-c3c(C)ccnc3C(C)C)c3nc(-c4c(O)cccc4F)c(F)cc23)C(C)C1 (stereo unspecified) + COc1c(OCCCN2CCOCC2)ccc2c3n(c(=NC(=O)c4cnc(N)nc4)nc12)CCN3 93.2%

Query CC1(C)CCC(CN2CCN(c3ccc(C(=O)NS(=O)(=O)c4ccc(NCC5CCOCC5)c([N+](=O)[O-])c4)c(Oc4cnc5[nH]ccc5c4)c3)CC2)=C(c2ccc(Cl)cc2)C1 + CC(Nc1ccc2c(c1)OCCn1cc(N3C(=O)OCC3C(F)F)nc1-2)C(N)=O next 26.8%

---

- System: 935938-334-R-J1-PDC spheroids with HUVEC/MSC, viability
- experimentalDetails: Anticancer human tumor 935938-334-R-J1-PDC cell line growth inhibition [PI3K];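 also: compound exposure lasted seven days before viability was read; percent of vehicle DMSO treated spheroid viability so 100% = untreated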
- experimentalContext: second compound 0.01 µM; first compound 0.1 µM; hits give low values
- Description: Combinatorial screen of targeted agents with the PI3K inhibitors inavolisib, alpelisib, duvelisib, and copanlisib in multi-cell type tumor spheroids A high-throughput screen of multi-cell type tumor spheroids was designed to identify active combinations of targeted small molecules and PI3K pathway inhibitors. […] Compounds. […] If the clinical Cmax for an agent had not been determined, the highest concentration tested was 10 microM. […]
measuredProperty: viability, T/C (%)
Entry rule: numbers only, all in %.

Some solved entries appear below for comparison.
[[record]]
compound = "CNC(=O)c1ccc(N2C(=S)N(c3ccc(C#N)c(C(F)(F)F)c3)C(=O)C2(C)C)cc1F + CC(Nc1ccc2c(c1)OCCn1cc(N3C(=O)OCC3C(F)F)nc1-2)C(N)=O"
experimentalsystem = "935938-334-R-J1-PDC spheroids with HUVEC/MSC, viability"
measvalue = 89.9

[[record]]
compound = "C#Cc1c(F)ccc2cc(O)cc(-c3ncc4c(N5CC6CCC(C5)N6)nc(OCC56CCCN5CC(F)C6)nc4c3F)c12 (stereo not given) + CC(Nc1ccc2c(c1)OCCn1cc(N3C(=O)OCC3C(F)F)nc1-2)C(N)=O"
experimentalsystem = "935938-334-R-J1-PDC spheroids with HUVEC/MSC, viability"
measvalue = 74

[[record]]
compound = "C=CC(=O)N1CCN(c2nc(=O)n(-c3c(C)ccnc3C(C)C)c3nc(-c4c(O)cccc4F)c(F)cc23)C(C)C1 (stereo not given) + COc1c(OCCCN2CCOCC2)ccc2c3n(c(=NC(=O)c4cnc(N)nc4)nc12)CCN3"
experimentalsystem = "935938-334-R-J1-PDC spheroids with HUVEC/MSC, viability"
measvalue = 96

[[record]]
compound = "CCN1CCN(Cc2ccc(Nc3ncc(F)c(-c4cc(F)c5nc(C)n(C(C)C)c5c4)n3)nc2)CC1 + CC(Nc1ccc2c(c1)OCCn1cc(N3C(=O)OCC3C(F)F)nc1-2)C(N)=O"
experimentalsystem = "935938-334-R-J1-PDC spheroids with HUVEC/MSC, viability"
measvalue = 64.4


# viability, T/C lookup, item CC(=O)c1c(C)c2cnc(Nc3ccc(N4CCNCC4)cn3)nc2n(C2CCCC2)c1=O + CC(Nc1ccc2c(c1)OCCn1cc(N3C(=O)OCC3C(F)F)nc1-2)C(N)=O 26.5
